Listed next: entries and their corresponding inhibition.
- Procedure Text: yeast transport mutant growth inhibition pilot in 384-well plates, post-Golgi transport modulator project (AID 636); note: test concentration not given here
- Experimental Context: absorbance 615 nm, about 18 h, active compounds read high
# unit: % | format: bare number

A selection of reference data follows.
Compound: O=C(CC1(O)C(=O)Nc2ccccc21)c1ccc2c(c1)OCO2 (stereo unspecified)
inhibition [%]: 0.78
//
Compound: CCOC(=O)N1CCC(NC(=O)c2cc(C(=O)NC3CCCC3)ccc2CO)CC1
inhibition [%]: -6.8
//
Compound: O=C(CCCCCn1c(=O)[nH]c2ccsc2c1=O)N1CCCCC1
inhibition [%]: -2.5
//
Compound: CCCCN(C)Cc1c(O)ccc2c(-c3ccccc3)cc(=O)oc12
inhibition [%]: -2.7
//
Compound: CCOC(=O)c1c(C)n(OCc2ccccc2)c2ccc3c(no[n+]3[O-])c12
inhibition [%]: -3.24

Noted for `CN(C)c1ccc(NC(=O)Cn2cc3c(n2)CCCC3)cc1` : its inhibition reads -4.13

Noted for `CCc1ccc(N(CC(=O)NC2CCCC2)S(=O)(=O)c2c(C)noc2C)cc1` : its inhibition reads -4.4

Noted for `Cc1occc1C(=O)N1CCN(c2ncccn2)CC1` : its inhibition reads 2.56

Noted for `CCOc1ccc(N(CC(=O)OC)S(=O)(=O)c2ccc(OC)c(OC)c2)cc1` : its inhibition reads 3.12

Noted for `Cn1c(=O)c2c(nc(SCCOc3ccc4ccc(=O)oc4c3)n2C)n(C)c1=O` : its inhibition reads -2.93

Noted for `O=C(CSc1nnnn1-c1ccccc1)Nc1ccc(Cl)cc1` : its inhibition reads 2.13

These data points were gathered from PubChem BioAssay.
